- System: HeLa
- Measurement description: Cytotoxicity against human HeLa cells by sulforhodamine B assay
- Format: functional, cell-based
Dear colleague, classification is by IC50, with ranges listed here: lower band: < 10 µM; central band: ≥ 10 µM and < 30 µM; upper band: ≥ 30 µM

For Cc1ccc2c3c(n(C)c(=O)c2c1)-c1ccccc1OC3C (stereo unspecified) , which IC50 bin applies?
central band

For Cc1ccc2c(=O)n(C)c3c(c2c1)CCOc1ccccc1-3 , which IC50 bin applies?
upper band

For COc1ccc(Cn2c3c(c4ccccc4c2=O)CCOc2ccccc2-3)cc1 , which IC50 bin applies?
lower band

For COCOc1ccccc1-c1c(Br)c2cc(OC)c(OC)cc2c(=O)n1C , which IC50 bin applies?
upper band

For C=COc1ccccc1-c1c(Br)c2cc(C)ccc2c(=O)n1Cc1ccc(OC)cc1 , which IC50 bin applies?
central band

For COCOc1ccccc1-c1cc2cc(C)ccc2c(=O)n1C , which IC50 bin applies?
central band

For COc1cc2c3c(n(C)c(=O)c2cc1OC)-c1ccccc1OC3C (stereo unspecified) , which IC50 bin applies?
lower band

For Cc1ccc2c(=O)n(C)c3c(c2c1)C(C)Oc1ccccc1-3 (stereo unspecified) , which IC50 bin applies?
central band

For C=COc1ccccc1-c1c(Br)c2ccccc2c(=O)n1Cc1ccc(OC)cc1 , which IC50 bin applies?
upper band

For COCOc1ccccc1-c1cc2cc(C)ccc2c(=O)[nH]1 , which IC50 bin applies?
lower band

For Cn1c2c(c3ccccc3c1=O)CCOc1ccccc1-2 , which IC50 bin applies?
central band
